# System: human apolipoprotein(a) mRNA
# protocol: Apolipoprotein(a) mRNA expression in primary human hepatocytes, real-time PCR
# Type: cell-based
# run.conditions: human primary hepatocytes; 5, 10, 50 or 150 nM, 24 hours
In the oligonucleotide strings, read from the 5' end, every base follows the letter of its sugar. An asterisk marks phosphorothioate; unmarked linkages are phosphodiester. Other units and linkages are bracketed, terminal groups are in braces. A string of capitals states the bases alone. e = 2'-O-(2-methoxyethyl) (MOE); [5mC] = 5-methylcytosine; d = 2'-deoxy (DNA)
readout.label: expression of apolipoprotein(a) mRNA

substance="ISIS 281625: SEQ ID NO: 224, 2′-MOE gapmer targeted to human apolipoprotein B (antisense eA*eG*eG*eT*eT*dA*d[5mC]*d[5mC]*dA*dG*d[5mC]*d[5mC]*dA*d[5mC]*dA*eT*eG*e[5mC]*eA*eG)" observed_measurement=decreased
substance="ISIS 301027: SEQ ID NO: 262, 2′-MOE gapmer targeted to human apolipoprotein B (antisense eG*e[5mC]*eT*e[5mC]*eA*d[5mC]*dT*dG*dT*dA*dT*dG*dG*dT*dT*eT*eT*eA*eT*e[5mC])" observed_measurement=decreased

###

# System: rabbit apolipoprotein B mRNA
# protocol: Inhibition of rabbit apolipoprotein B mRNA levels in primary rabbit hepatocytes, real-time PCR
# Format: cell-based
# Design: concentration or dose not given beside the values
# Source text: Primary rabbit hepatocytes were purchased from Invitro Technologies (Gaithersburg, Md.) and maintained in Dulbecco's modified Eagle's medium (Gibco). When purchased, the cells had been seeded into 96-well plates for use in RT-PCR analysis and were confluent. […]
In the oligonucleotide strings, read from the 5' end, every base follows the letter of its sugar. An asterisk marks phosphorothioate; unmarked linkages are phosphodiester. Other units and linkages are bracketed, terminal groups are in braces. A string of capitals states the bases alone. e = 2'-O-(2-methoxyethyl) (MOE); [5mC] = 5-methylcytosine; d = 2'-deoxy (DNA)
Below, each of the substances is paired with its reported % INHIB of rabbit apolipoprotein B mRNA levels value.
readout.label: % INHIB of rabbit apolipoprotein B mRNA levels (%)

substance="233187 (antisense eT*eG*eA*e[5mC]*eA*dG*dA*dT*dG*dA*dA*dG*dA*dG*dG*eA*eA*eG*eA*eA) [compound 233187]" observed_measurement=66
substance="233164 (antisense e[5mC]*eA*eT*eA*eT*dG*dT*d[5mC]*dT*dG*dA*dA*dG*dT*dT*eG*eA*eG*eA*e[5mC]) [compound 233164]" observed_measurement=8
substance="233174 (antisense eT*eG*eT*eG*e[5mC]*dA*d[5mC]*dG*dG*dA*dT*dA*dT*dG*dA*eT*eA*eA*e[5mC]*eG) [compound 233174]" observed_measurement=21
substance="233189 (antisense eG*e[5mC]*e[5mC]*eT*e[5mC]*dA*dA*dT*d[5mC]*dT*dG*dT*dT*dG*dT*eT*eT*e[5mC]*eA*eG) [compound 233189]" observed_measurement=46
substance="233167 (antisense eT*e[5mC]*eA*eA*eG*d[5mC]*dT*dG*dG*dT*dT*dG*dT*dT*dG*e[5mC]*eA*e[5mC]*eT*eG) [compound 233167]" observed_measurement=28
substance="233154 (antisense e[5mC]*eA*eA*eT*eT*dG*dA*dA*dT*dG*dT*dA*d[5mC]*dT*d[5mC]*eA*eG*eA*eT*eA) [compound 233154]" observed_measurement=18
